Measured values drawn from paper PMC11089506 for this set.

Target: UniProt:P35439
test-readout: IC50

[Q] Short answer please: IC50, UniProt:P35439, entry COc1cc(C(F)(F)F)c(OC)cc1[C@@H]1CCCNC1 [(S)-11]
[A] > 10 µM

====

Target: Ca2+ Channel N-Type (Rattus norvegicus, UniProt Q02294)
Sequence (Q02294 whole entry, looked up): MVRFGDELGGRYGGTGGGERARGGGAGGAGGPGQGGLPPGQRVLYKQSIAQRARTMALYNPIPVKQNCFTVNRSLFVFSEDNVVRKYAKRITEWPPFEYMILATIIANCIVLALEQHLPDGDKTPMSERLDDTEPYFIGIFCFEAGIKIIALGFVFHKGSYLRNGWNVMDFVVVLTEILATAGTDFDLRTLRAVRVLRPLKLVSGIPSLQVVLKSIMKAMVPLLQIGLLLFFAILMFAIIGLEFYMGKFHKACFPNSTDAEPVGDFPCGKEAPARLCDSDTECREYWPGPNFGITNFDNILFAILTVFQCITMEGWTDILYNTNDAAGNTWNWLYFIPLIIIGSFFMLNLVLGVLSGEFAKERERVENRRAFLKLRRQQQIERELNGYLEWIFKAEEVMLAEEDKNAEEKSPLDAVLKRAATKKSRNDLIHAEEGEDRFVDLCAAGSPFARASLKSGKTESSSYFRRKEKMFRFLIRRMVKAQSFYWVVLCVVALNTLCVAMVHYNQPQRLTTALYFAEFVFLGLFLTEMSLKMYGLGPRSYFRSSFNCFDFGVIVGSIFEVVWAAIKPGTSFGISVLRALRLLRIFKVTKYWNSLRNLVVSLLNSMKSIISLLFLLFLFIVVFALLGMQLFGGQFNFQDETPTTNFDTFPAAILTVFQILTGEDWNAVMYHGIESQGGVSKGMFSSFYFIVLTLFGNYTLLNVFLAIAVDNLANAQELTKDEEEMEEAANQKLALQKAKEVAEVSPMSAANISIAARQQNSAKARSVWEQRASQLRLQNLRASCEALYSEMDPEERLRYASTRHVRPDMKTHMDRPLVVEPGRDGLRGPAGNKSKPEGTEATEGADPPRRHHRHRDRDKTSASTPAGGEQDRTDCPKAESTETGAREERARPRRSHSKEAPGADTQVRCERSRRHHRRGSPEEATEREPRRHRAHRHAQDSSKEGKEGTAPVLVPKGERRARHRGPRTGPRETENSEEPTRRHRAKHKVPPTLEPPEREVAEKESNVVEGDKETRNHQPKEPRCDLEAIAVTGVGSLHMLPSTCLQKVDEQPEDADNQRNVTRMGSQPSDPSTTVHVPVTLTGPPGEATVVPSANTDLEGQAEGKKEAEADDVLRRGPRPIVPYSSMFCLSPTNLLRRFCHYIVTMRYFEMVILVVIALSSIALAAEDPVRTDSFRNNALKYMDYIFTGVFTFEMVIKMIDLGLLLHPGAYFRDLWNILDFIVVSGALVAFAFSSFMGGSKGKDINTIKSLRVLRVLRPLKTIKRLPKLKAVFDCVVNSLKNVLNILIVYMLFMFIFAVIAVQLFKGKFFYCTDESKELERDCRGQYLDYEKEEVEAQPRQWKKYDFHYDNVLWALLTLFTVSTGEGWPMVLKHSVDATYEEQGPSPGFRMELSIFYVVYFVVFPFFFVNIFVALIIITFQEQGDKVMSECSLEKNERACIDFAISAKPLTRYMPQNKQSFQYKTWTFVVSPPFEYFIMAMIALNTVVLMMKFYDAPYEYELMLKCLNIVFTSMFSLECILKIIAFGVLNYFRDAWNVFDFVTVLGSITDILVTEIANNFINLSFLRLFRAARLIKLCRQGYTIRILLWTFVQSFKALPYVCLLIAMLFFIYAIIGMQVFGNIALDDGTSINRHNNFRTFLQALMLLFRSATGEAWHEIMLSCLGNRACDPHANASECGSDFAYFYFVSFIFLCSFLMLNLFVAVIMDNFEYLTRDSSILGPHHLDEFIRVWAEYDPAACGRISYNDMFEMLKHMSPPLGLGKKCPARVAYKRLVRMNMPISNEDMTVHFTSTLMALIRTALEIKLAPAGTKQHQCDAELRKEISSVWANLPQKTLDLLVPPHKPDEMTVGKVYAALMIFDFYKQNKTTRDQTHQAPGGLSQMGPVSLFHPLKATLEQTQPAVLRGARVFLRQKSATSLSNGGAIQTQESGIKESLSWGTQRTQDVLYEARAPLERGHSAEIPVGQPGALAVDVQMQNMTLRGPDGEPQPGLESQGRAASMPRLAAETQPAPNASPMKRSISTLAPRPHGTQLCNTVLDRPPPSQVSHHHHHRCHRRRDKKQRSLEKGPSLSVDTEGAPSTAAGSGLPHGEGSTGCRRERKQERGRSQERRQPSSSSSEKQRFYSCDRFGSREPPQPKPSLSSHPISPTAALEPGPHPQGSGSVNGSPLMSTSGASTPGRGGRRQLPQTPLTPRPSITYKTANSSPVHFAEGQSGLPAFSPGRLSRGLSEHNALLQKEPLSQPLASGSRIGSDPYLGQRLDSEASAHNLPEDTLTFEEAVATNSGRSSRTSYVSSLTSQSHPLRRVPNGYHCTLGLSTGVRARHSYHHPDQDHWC
Assay: biochemical
test-readout: IC50

[Q] What does the record list as IC50 for COc1cc(C(F)(F)F)c(OC)cc1[C@@H]1CCCNC1 [(S)-11] ?
[A] > 10 µM

====

Target: α1A (adrenergic receptor) (Homo sapiens)
Sequence (P35348 1-466): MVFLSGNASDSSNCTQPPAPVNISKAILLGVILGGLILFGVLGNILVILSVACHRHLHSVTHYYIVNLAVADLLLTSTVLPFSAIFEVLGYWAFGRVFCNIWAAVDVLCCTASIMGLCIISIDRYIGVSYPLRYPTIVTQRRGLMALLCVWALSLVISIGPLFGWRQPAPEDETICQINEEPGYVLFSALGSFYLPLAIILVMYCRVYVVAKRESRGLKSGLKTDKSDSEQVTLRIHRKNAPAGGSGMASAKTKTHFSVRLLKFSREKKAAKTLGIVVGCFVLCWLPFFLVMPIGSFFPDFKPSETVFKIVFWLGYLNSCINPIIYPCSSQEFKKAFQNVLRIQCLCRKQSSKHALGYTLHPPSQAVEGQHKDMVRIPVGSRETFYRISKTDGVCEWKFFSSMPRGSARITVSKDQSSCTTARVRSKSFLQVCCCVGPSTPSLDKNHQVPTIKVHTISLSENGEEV
test-readout: IC50

[Q] Entry under review: COc1cc(C(F)(F)F)c(OC)cc1[C@@H]1CCCNC1 [(S)-11] . Reported IC50?
[A] > 10 µM
